assay: Solubility at pH 7.4; type: physicochemical; settings: buffer
value type: solubility (µM)

CCOC(=O)N[C@@H](CCCCN)C(=O)c1noc(Cc2ccc(C(=O)NCCc3cccc(Cl)c3)cc2)n1 | 471
NCCCC[C@H](NC(=O)c1cccc(F)c1)C(=O)c1noc(Cc2ccc(C(=O)NCCc3cccc(Cl)c3)cc2)n1 | 422
NCCCC[C@H](NC(=O)OCc1ccccc1)C(=O)c1noc(Cc2ccc(C(=O)NCCCc3ccccc3)cc2)n1 | 370
NCCCC[C@H](NC(=O)OCc1ccccc1)C(=O)c1noc(Cc2ccc(C(=O)NC/C=C/c3ccccc3)cc2)n1 | 226
NCCCC[C@H](NC(=O)OCc1ccccc1)C(=O)c1noc(Cc2ccc(C(=O)NCCCCc3ccccc3)cc2)n1 | 188
NCCCC[C@H](NC(=O)OCc1ccccc1)C(=O)c1noc(Cc2ccc(C(=O)NCCc3cc(F)cc(F)c3)cc2)n1 | 333
NCCCC[C@H](NC(=O)OCc1ccccc1)C(=O)c1noc(Cc2ccc(C(=O)NCCc3cccc(C(F)(F)F)c3)cc2)n1 | 284
NCCCC[C@H](NC(=O)OCc1ccccc1)C(=O)c1noc(Cc2ccc(C(=O)NCCc3cccs3)cc2)n1 | 484

====

Here, each record is paired with measured Ki data.
target: Trypsin (Homo sapiens, UniProt P07477+P07478+P35030); assay: Inhibition of human trypsin; type: protein assay
value type: Ki (nM)

NCCCC[C@H](NC(=O)c1ccc(F)c(F)c1)C(=O)c1noc(Cc2ccc(C(=O)NCCc3cccc(Cl)c3)cc2)n1 | 440
NCCCC[C@H](NC(=O)OCc1ccccc1)C(=O)c1noc(Cc2ccc(C(=O)NC/C=C/c3ccccc3)cc2)n1 | 18
NCCCC[C@H](NC(=O)c1ccc(F)cc1)C(=O)c1noc(Cc2ccc(C(=O)NCCc3cccc(Cl)c3)cc2)n1 | 240
NCCCC[C@H](NC(=O)OCc1ccccc1)C(=O)c1noc(Cc2ccc(C(=O)NCc3ccccc3)cc2)n1 | 23
CCOC(=O)N[C@@H](CCCCN)C(=O)c1noc(Cc2ccc(C(=O)NCCc3cccc(Cl)c3)cc2)n1 | 180
NCCCC[C@H](NC(=O)c1ccc2c(c1)OCO2)C(=O)c1noc(Cc2ccc(C(=O)NCCc3cccc(Cl)c3)cc2)n1 | 330
NCCCC[C@H](NC(=O)OCc1ccccc1)C(=O)c1noc(Cc2ccc(C(=O)NCCOc3ccc(F)cc3)cc2)n1 | 11
NCCCC[C@H](NC(=O)OCc1ccccc1)C(=O)c1noc(CN2CCN(C(=O)CCc3ccccc3)CC2)n1 | 33
NCCCC[C@H](NC(=O)OCc1ccccc1)C(=O)c1noc(Cc2ccc(C(=O)NCCCCc3ccccc3)cc2)n1 | 14
CC(C)(C)C(=O)N[C@@H](CCCCN)C(=O)c1noc(Cc2ccc(C(=O)NCCc3cccc(Cl)c3)cc2)n1 | 470
NCCCC[C@H](NC(=O)c1cc(F)cc(F)c1)C(=O)c1noc(Cc2ccc(C(=O)NCCc3cccc(Cl)c3)cc2)n1 | 410
NCCCC[C@H](NC(=O)c1cccc(F)c1)C(=O)c1noc(Cc2ccc(C(=O)NCCc3cccc(Cl)c3)cc2)n1 | 280
NCCCC[C@H](NC(=O)OCc1ccccc1)C(=O)c1noc(CN2CCN(C(=O)CCCc3ccccc3)CC2)n1 | 22
NCCCC[C@H](NC(=O)OCc1ccccc1)C(=O)c1noc(Cc2ccc(C(=O)NCc3cccc4ccccc34)cc2)n1 | 26
NCCCC[C@H](NC(=O)OCc1ccccc1)C(=O)c1noc(Cc2ccc(C(=O)NCCc3ccc(C(F)(F)F)cc3)cc2)n1 | 27
CC(C)CCNC(=O)c1ccc(Cc2nc(C(=O)[C@H](CCCCN)NC(=O)OCc3ccccc3)no2)cc1 | 29

Reference for the values: ChEMBL document CHEMBL1146045
